System: SF-268
Assay Text: NCI tumour cell line growth inhibition, 48 h
Calls of active or inactive are those of the source. Cut-off read from the data, not from the text of the source: active = GI50 up to about 1.1 µM and inactive = higher.
Would you mind answering with one of these outcomes? label 1 for active, label 0 for inactive

Please review the entries below; each comes with its answer.
COC1=C2C[C@@H](C)C[C@@H](OC)[C@@H](O)[C@H](C)/C=C(\C)[C@@H](OC(N)=O)[C@H](OC)/C=C\C=C(/C)C(=O)NC(=CC1=O)C2=O ... label 1
C[C@@H](CC(O)C(O)C(C)(C)O)C1CCC23CC12CCC1[C@@]2(C)CCC(=O)C(C)(C)C2CC(OC2OC(CO)C(O)C(O)C2O)[C@]13C (some centres undefined) ... label 0
Cc1ccc(/C=N/n2c(-c3ccc(C)cc3)n[nH]c2=O)cc1 ... label 0

# lookup: test call for COc1ccc(/C=C/C(=O)C(C)C)cc1
label 0

----------
Tested on: HCT-116
Assay Text: NCI tumour cell line growth inhibition, 48 h
Calls of active or inactive are those of the source. No stated cut-off is given here; in the data, active = GI50 up to about 1.1 µM and inactive = higher.
Would you mind answering with one of these outcomes? true = active, false = inactive

Please review the entries below; each comes with its answer.
O=[N+]([O-])c1ccc2[nH]nc(OCc3ccccc3Cl)c2c1 ... false
COc1ccc(C2C3=C(Nc4ncnn42)c2ccccc2OC3c2ccccc2)cc1 (stereo not given) ... false
O=C(O)c1ccccc1/C=N\N=C1NCCN1 ... false

# lookup: test call for O=C(O)/C=C/c1nc2ccccc2c(=O)o1
false

# lookup: test call for CCCCC(=O)Nc1ccc2c(C)cc(-c3ccc(-c4cc(-c5ccc(C)cc5)cc(-c5ccc(-c6cc(C)c7ccc(NC(=O)CCCC)nc7n6)cc5)n4)cc3)nc2n1
false

# lookup: test call for COc1cccc2c1CCc1c(-c3ccc(F)cc3)cc(-c3ccc4ccccc4n3)nc1-2
false

# lookup: test call for CC(=O)NC(CCCCN(Cc1ccccc1)C(=O)NCCCl)C(=O)NCc1ccccc1 (stereo not given)
false

# lookup: test call for CC(C)[C@@H](C)[C@@]1(C)C[C@@H]1[C@@H](C)[C@H]1CC[C@@H]([C@@H]2CC=C3C[C@@H](O)CC[C@]3(C)C2=O)[C@]1(C)CCO
false

# lookup: test call for Cc1ccc2[nH]c3c(C)c4ccncc4c(C)c3c2c1
true

# lookup: test call for CN(C)C(=O)Nc1cc2c3c(c1)CCCN3CCC2
false

----------
Test system: IGROV-1
Assay Text: NCI tumour cell line growth inhibition, 48 h
Activity calls are given as the source filed them. Rule as the data show it: active = GI50 up to about 1.1 µM and inactive = higher.
Would you mind answering with one of these outcomes? yes for active, no for inactive

Please review the entries below; each comes with its answer.
CCCCCCCCCC(=O)OCC1OC(n2cc(F)c(=O)[nH]c2=O)C(N)C(OC(=O)CCCCCCCCC)C1O (stereo unspecified) ... no
Cn1c(=O)c2nc(CS(=O)(=O)Cc3nc4c(=O)n(C)c(=O)n(C)c4[nH]3)[nH]c2n(C)c1=O ... no
O=C1c2ccccc2C(=O)N1C/C=C/CO ... no
CN(C)CCNC(=O)c1cccc2nc3ccc4cccnc4c3nc12 ... yes
CCOC(=O)C1=C(Nc2ccccc2)SCC1=O ... no

# lookup: test call for CCN1CC2(C)CCC(OC)C34C5CC6CCC(O)(C5C(=O)O6)C(C(O)C23)C14 (stereo unspecified)
no

# lookup: test call for N#[N+]c1ccccc1Sc1ccc(Cl)cc1
no

# lookup: test call for CCCn1cnc2c(/N=N/O)ncnc21
no

# lookup: test call for CC(C)=CCC/C(C)=C/CC/C(C)=C/CC/C(C)=C/CC/C(C)=C\CC/C(C)=C/CC/C(C)=C/CC/C(C)=C/Cc1cc(O)ccc1O
yes

----------
Provide the recorded GI50 for the entries that follow.
Tested on: EKVX
Assay Text: NCI tumour cell line growth inhibition, 48 h
Active and inactive are the calls of the source. Rule as the data show it: active = GI50 up to about 1.1 µM and inactive = higher.

Example entries and their recorded answers appear below.
C=C1C(=O)OC2/C=C(\C)CC/C=C(\C)CC(OC(=O)/C(=C/CO)CO)[C@@H]12 (stereo not given in full) ... 15.2 µM (inactive)
COc1ccc(OC)c2c1C[C@@H]1C(C#N)N3[C@H](Cc4c(OC)ccc(OC)c4[C@@H]3C)C(=O)N1[C@H]2C (stereo not given in full) ... 5.77 µM (inactive)
CCCCn1c2c(n(CCCC)c1=[Se])-c1c(n(CCCC)c(=[Se])n1CCCC)S[Se][Se]S2 ... 38.5 µM (inactive)
CC1(C(=O)O)CCC(C(=O)O)C(C)(C)O1 (stereo not given) ... > 100 µM (inactive)

// next entry
Recall the recorded GI50 for CC(C)N1CCC2(CC1)NNc1ncccc1-n1cccc12 with EKVX and state it.
> 100 µM (inactive)

----------
Test system: SR
Assay Text: NCI tumour cell line growth inhibition, 48 h
Activity calls are given as the source filed them. No stated cut-off is given here; in the data, active = GI50 up to about 1.1 µM and inactive = higher.
Would you mind answering with one of these outcomes? true (1) (active), false (0) (inactive)

Please review the entries below; each comes with its answer.
O=c1c2ccccc2n2c(-c3ccccc3O)nnc2n1-c1ccccc1 ... false (0)
CN(N)C(=O)NCCCl ... false (0)
Clc1ccc(-c2cn3c(nc4ccccc43)c(/C=C/c3ccco3)n2)cc1 ... false (0)
O=c1cc(-c2ccccc2)[nH]c2cc(F)cc(F)c12 ... false (0)
c1csc(-c2ccc(-c3ccc(-c4cccs4)s3)s2)c1 ... false (0)

# lookup: test call for COc1ccc(/C(C)=N/OC(=O)c2c(-c3ccccc3Cl)noc2C)cc1CN1CCOCC1
false (0)

# lookup: test call for OC(c1ccc(-c2ccccc2)cc1)(c1ccc(-c2ccccc2)cc1)c1ccc(-c2ccccc2)cc1
false (0)

# lookup: test call for c1ccc2c(c1)ccn2CCc1c[nH]c2ccccc12
false (0)

# lookup: test call for CC(=O)c1c(-c2ccco2)c(C#N)c(=S)n(C2OC(CO)C(O)C(O)C2O)c1C (configuration not stated)
false (0)

# lookup: test call for O=C1c2ccccc2C2C1N2C(=O)C(F)(F)F (configuration not stated)
false (0)

# lookup: test call for COc1cc(CNc2nc3cc(C(F)(F)F)ccc3nc2-c2ccccc2)cc(OC)c1OC
false (0)

----------
Provide the recorded GI50 for the entries that follow.
Test system: SNB-19
Assay Text: NCI tumour cell line growth inhibition, 48 h
Calls of active or inactive are those of the source. Cut-off read from the data, not from the text of the source: active = GI50 up to about 1.1 µM and inactive = higher.

Example entries and their recorded answers appear below.
CC(=O)/N=C1\N/C(=C\c2ccc(Cl)cc2)C(=O)N1/C=C1\C(=O)Oc2ccccc2C1=O ... > 100 µM (inactive)
N#C/C(=C\c1ccncc1)c1csc2ccccc12 ... 26 µM (inactive)
CCCCCCNc1n[nH]c(=O)c2c1nnn2Cc1ccccc1 ... > 100 µM (inactive)
Cc1ccc(S(=O)(=O)OCCn2cnc3nc(NC(=O)c4ccccc4)[nH]c(=O)c32)cc1 ... > 100 µM (inactive)
COc1ccc(/C=N/NC(=O)C2=C(N)N(c3ccccc3)C(=C(C#N)C#N)S2)cc1 ... 70 µM (inactive)

List reported GI50 for each of these compounds:
1. CCN(CC)C(=O)Cc1[nH][nH]c(=O)c1C(=O)N(CC)CC
2. C[C@]12CC(C=O)C(=O)C(O)=C1CC[C@@H]1C2CC[C@@]2(C)C1CC[C@]2(C)O (stereo not given in full)
3. Cc1ccc(S(=O)(=O)ON2C(=O)c3cccc4cc([N+](=O)[O-])cc(c34)C2=O)cc1
4. O=C1/C(=c2\s/c(=C\c3ccccc3)c(=O)n2-c2ccccc2)SC(=S)N1c1ccccc1
5. NC1CCCCC1.O=P(O)(O)C1(P(=O)(O)O)CC1

1. > 100 µM (inactive)
2. 25.2 µM (inactive)
3. 57.8 µM (inactive)
4. 46.1 µM (inactive)
5. > 100 µM (inactive)

----------
Tested on: CCRF-CEM
Assay Text: NCI tumour cell line growth inhibition, 48 h
Active and inactive are the calls of the source. No stated cut-off is given here; in the data, active = GI50 up to about 1.1 µM and inactive = higher.
Measure Name: GI50

Cc1ccc(S(=O)(=O)N2CCCCC2CCO)cc1 (stereo not given) ... > 100 µM (inactive)

List reported GI50 for each of these compounds:
1. C=C1C(=O)OC2C3C(=C)[C@@H](OC(C)=O)CC3C(C)=CC(OC(=O)C(C)(O)C(C)OC(C)=O)[C@@H]12 (stereo not given in full)
2. CC(=O)NC(CCCCN(Cc1ccccc1)C(=O)NCCCl)C(=O)NCc1ccccc1 (stereo not given)
3. COC(=O)[C@@H]1C=CCN1S(=O)(=O)c1ccc(C)cc1
4. CC(C)NC(=O)OCc1c(COC(=O)NC(C)C)c(-c2ccc[n+](COC(=O)C(C)(C)C)c2)n2c1CCC2
5. CCO/C([O-])=C(/C=O)[n+]1c(C)n(C)c2ccccc21

1: 2.84 µM (inactive); 2: > 100 µM (inactive); 3: 21.8 µM (inactive); 4: 24.9 µM (inactive); 5: > 100 µM (inactive)

List reported GI50 for each of these compounds:
1. C[C@H]1C[C@H]2[C@@H]3C(C)(C)O[C@]4(O)C(=O)[C@]5(O)[C@@H](C)CC[C@H]1[C@]25C(=O)[C@]34C
2. COc1ccc2c3c([nH]c2c1[N+](=O)[O-])C(C)N(Cc1ccc([N+](=O)[O-])cc1)CC3 (stereo not given)
3. O=c1c(C(c2ccccc2)c2c(O)oc3cc(O)ccc3c2=O)c(O)oc2cc(O)ccc12
4. O=C(Cc1ccccc1)NNc1nc(NNC(=O)c2ccncc2)nc(Nc2cccc(Cl)c2)n1

1: 36.6 µM (inactive); 2: 6.76 µM (inactive); 3: > 100 µM (inactive); 4: > 10 µM (inactive)
